# EXPERIMENT SUMMARY: Fibril dimensions measured from TEM images
# Assay type: physicochemical
# TEST SETTINGS: physiological conditions, TEM
Where a SMILES comes first, the peptide text is derived from it. [ ]: non-standard residue; d: D form. Orn = NCCC[C@H](N)C(=O)O
# wn, width of the fibril at its narrowest point values compiled below

Here's what some known entries look like.
CC(=O)N[C@@H](CO)C(=O)N[C@@H](CO)C(=O)N[C@@H](CCCNC(=N)N)C(=O)N[C@@H](Cc1ccccc1)C(=O)N[C@@H](CCCN)C(=O)N[C@@H](Cc1c[nH]c2ccccc12)C(=O)N[C@@H](CCCN)C(=O)N[C@@H](Cc1ccccc1)C(=O)N[C@@H](CCC(=O)O)C(=O)N[C@@H](CO)C(=O)N[C@@H](CO)C(N)=O [Peptide P11-12, CH3CO-S-S-R-F-O-W-O-F-E-S-S-NH2] (Ac-SSRF[Orn]W[Orn]FESS-NH2) ... 5-7 nm
CC(=O)N[C@@H](CO)C(=O)N[C@@H](CO)C(=O)N[C@@H](CCCNC(=N)N)C(=O)N[C@@H](Cc1ccccc1)C(=O)N[C@@H](CCC(=O)O)C(=O)N[C@@H](Cc1c[nH]c2ccccc12)C(=O)N[C@@H](CCC(=O)O)C(=O)N[C@@H](Cc1ccccc1)C(=O)N[C@@H](CCC(=O)O)C(=O)N[C@@H](CO)C(=O)N[C@@H](CO)C(N)=O [Peptide P11-9, CH3CO-S-S-R-F-E-W-E-F-E-S-S-NH2] (Ac-SSRFEWEFESS-NH2) ... 3.5-7 nm
CC(=O)N[C@@H](CCC(N)=O)C(=O)N[C@@H](CCC(N)=O)C(=O)N[C@@H](CCCNC(=N)N)C(=O)N[C@@H](Cc1ccccc1)C(=O)N[C@@H](CCCN)C(=O)N[C@@H](Cc1c[nH]c2ccccc12)C(=O)N[C@@H](CCCN)C(=O)N[C@@H](Cc1ccccc1)C(=O)N[C@@H](CCC(=O)O)C(=O)N[C@@H](CCC(N)=O)C(=O)N[C@@H](CCC(N)=O)C(N)=O [Peptide P11-8, CH3CO-Q-Q-R-F-O-W-O-F-E-Q-Q-NH2] (Ac-QQRF[Orn]W[Orn]FEQQ-NH2) ... 4-11 nm
CC(=O)N[C@@H](CCC(N)=O)C(=O)N[C@@H](CCC(N)=O)C(=O)N[C@@H](CCCNC(=N)N)C(=O)N[C@@H](CCC(N)=O)C(=O)N[C@@H](CCC(=O)O)C(=O)N[C@@H](CCC(N)=O)C(=O)N[C@@H](CCC(=O)O)C(=O)N[C@@H](CCC(N)=O)C(=O)N[C@@H](CCC(=O)O)C(=O)N[C@@H](CCC(N)=O)C(=O)N[C@@H](CCC(N)=O)C(N)=O [Peptide P11-20, CH3CO-Q-Q-R-Q-E-Q-E-Q-E-Q-Q-NH2] (Ac-QQRQEQEQEQQ-NH2) ... 8-15 nm
CC(=O)N[C@H](C(=O)N[C@H](C(=O)N[C@@H](CCCNC(=N)N)C(=O)N[C@@H](Cc1ccccc1)C(=O)N[C@@H](CCCN)C(=O)N[C@@H](Cc1c[nH]c2ccccc12)C(=O)N[C@@H](CCCN)C(=O)N[C@@H](Cc1ccccc1)C(=O)N[C@@H](CCC(=O)O)C(=O)N[C@H](C(=O)N[C@H](C(N)=O)[C@@H](C)O)[C@@H](C)O)[C@@H](C)O)[C@@H](C)O [Peptide P11-18, CH3CO-T-T-R-F-O-W-O-F-E-T-T-NH2] (Ac-TTRF[Orn]W[Orn]FETT-NH2) ... 7-11 nm
CC(=O)N[C@@H](CC(N)=O)C(=O)N[C@@H](CC(N)=O)C(=O)N[C@@H](CCCNC(=N)N)C(=O)N[C@@H](Cc1ccccc1)C(=O)N[C@@H](CCC(=O)O)C(=O)N[C@@H](Cc1c[nH]c2ccccc12)C(=O)N[C@@H](CCC(=O)O)C(=O)N[C@@H](Cc1ccccc1)C(=O)N[C@@H](CCC(=O)O)C(=O)N[C@@H](CC(N)=O)C(=O)N[C@@H](CC(N)=O)C(N)=O [Peptide P11-15, CH3CO-N-N-R-F-E-W-E-F-E-N-N-NH2] (Ac-NNRFEWEFENN-NH2) ... 5-7 nm
CC(=O)N[C@@H](CC(N)=O)C(=O)N[C@@H](CC(N)=O)C(=O)N[C@@H](CCCNC(=N)N)C(=O)N[C@@H](Cc1ccccc1)C(=O)N[C@@H](CCCN)C(=O)N[C@@H](Cc1c[nH]c2ccccc12)C(=O)N[C@@H](CCCN)C(=O)N[C@@H](Cc1ccccc1)C(=O)N[C@@H](CCC(=O)O)C(=O)N[C@@H](CC(N)=O)C(=O)N[C@@H](CC(N)=O)C(N)=O [Peptide P11-16, CH3CO-N-N-R-F-O-W-O-F-E-N-N-NH2] (Ac-NNRF[Orn]W[Orn]FENN-NH2) ... 5-10 nm
CC(=O)N[C@H](C(=O)N[C@H](C(=O)N[C@@H](CCCNC(=N)N)C(=O)N[C@@H](Cc1ccccc1)C(=O)N[C@@H](CCC(=O)O)C(=O)N[C@@H](Cc1c[nH]c2ccccc12)C(=O)N[C@@H](CCC(=O)O)C(=O)N[C@@H](Cc1ccccc1)C(=O)N[C@@H](CCC(=O)O)C(=O)N[C@H](C(=O)N[C@H](C(N)=O)[C@@H](C)O)[C@@H](C)O)[C@@H](C)O)[C@@H](C)O [Peptide P11-17, CH3CO-T-T-R-F-E-W-E-F-E-T-T-NH2] (Ac-TTRFEWEFETT-NH2) ... 5-10 nm

Attention now shifts to the item below.
Exercise: Could you tell me which wn, width of the fibril at its narrowest point is on file for CC(=O)N[C@@H](CCC(N)=O)C(=O)N[C@@H](CCC(N)=O)C(=O)N[C@@H](CCCNC(=N)N)C(=O)N[C@@H](CCC(N)=O)C(=O)N[C@@H](CCCN)C(=O)N[C@@H](CCC(N)=O)C(=O)N[C@@H](CCCN)C(=O)N[C@@H](CCC(N)=O)C(=O)N[C@@H](CCC(=O)O)C(=O)N[C@@H](CCC(N)=O)C(=O)N[C@@H](CCC(N)=O)C(N)=O [Peptide P11-19, CH3CO-Q-Q-R-Q-O-Q-O-Q-E-Q-Q-NH2] (Ac-QQRQ[Orn]Q[Orn]QEQQ-NH2) ?
Key: 7-13 nm

This collection of values is drawn from patent US9630991B2.
